# Tested on: 313798-341-R-J2-PDC spheroids, viability
# ASSAY NAME: Anticancer human tumor 313798-341-R-J2-PDC patient-derived cervical squamous cell carcinoma cell line growth inhibition [PI3K]
# MEASUREMENT SETUP: second compound 0.1 µM; first compound 0.1 µM; hits give low values; spheroids with HUVEC and MSC
// viability, T/C lookup, one value per entry
MEASURED PROPERTY: viability, T/C

# COMPOUND, STUDY TARGET, MEASURED PROPERTY, ENDPOINT RESULT
records = [
    ("CC1(C)CCC(CN2CCN(c3ccc(C(=O)NS(=O)(=O)c4ccc(NCC5CCOCC5)c([N+](=O)[O-])c4)c(Oc4cnc5[nH]ccc5c4)c3)CC2)=C(c2ccc(Cl)cc2)C1 + CC(Nc1ccc2c(c1)OCCn1cc(N3C(=O)OCC3C(F)F)nc1-2)C(N)=O", "313798-341-R-J2-PDC spheroids, viability", "viability, T/C", "102%"),
    ("Cn1ncnc1[C@H]1c2n[nH]c(=O)c3cc(F)cc(c23)N[C@@H]1c1ccc(F)cc1 + COc1c(OCCCN2CCOCC2)ccc2c3n(c(=NC(=O)c4cnc(N)nc4)nc12)CCN3", "313798-341-R-J2-PDC spheroids, viability", "viability, T/C", "37.1%"),
    ("C[C@@H](NC(=O)c1ncnc(N)c1Cl)c1ncc(C(=O)Nc2cc(C(F)(F)F)c(Cl)cn2)s1 + CC(Nc1ncnc2nc[nH]c12)c1cc2cccc(Cl)c2c(=O)n1-c1ccccc1", "313798-341-R-J2-PDC spheroids, viability", "viability, T/C", "100%"),
]

====

Known viability, T/C of a selection of molecules
# Test system: 313798-341-R-J2-PDC spheroids, viability
# ASSAY NAME: Anticancer human tumor 313798-341-R-J2-PDC cell line growth inhibition [PI3K];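 further: spheroids exposed to compounds for seven days; 100% = DMSO vehicle control viability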
# MEASUREMENT SETUP: second compound 0.316 µM; first compound 0.316 µM; hits give low values; spheroids with HUVEC and MSC
MEASURED PROPERTY: viability, T/C (%)

# MOLECULE, ENDPOINT RESULT
rows = [
    ("Cn1ncc(Cl)c1-c1cc(C(=O)NC(CN)Cc2cccc(F)c2)sc1Cl (stereo not drawn) + COc1c(OCCCN2CCOCC2)ccc2c3n(c(=NC(=O)c4cnc(N)nc4)nc12)CCN3", 15.2),
    ("CC(C)NCC(C(=O)N1CCN(c2ncnc3c2C(C)CC3O)CC1)c1ccc(Cl)cc1 (stereo not drawn) + COc1c(OCCCN2CCOCC2)ccc2c3n(c(=NC(=O)c4cnc(N)nc4)nc12)CCN3", 15.9),
    ("CC1(C)CCC(CN2CCN(c3ccc(C(=O)NS(=O)(=O)c4ccc(NCC5CCOCC5)c([N+](=O)[O-])c4)c(Oc4cnc5[nH]ccc5c4)c3)CC2)=C(c2ccc(Cl)cc2)C1 + CC(Nc1ncnc2nc[nH]c12)c1cc2cccc(Cl)c2c(=O)n1-c1ccccc1", 102),
]

====

# Tested on: 313798-341-R-J2-PDC spheroids, viability
# ASSAY NAME: Anticancer human tumor 313798-341-R-J2-PDC cell line growth inhibition [PI3K];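 further: spheroids exposed to compounds for seven days; 100% = DMSO vehicle control viability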
# MEASUREMENT SETUP: second compound 1 µM; first compound 0.01 µM; hits give low values; spheroids with HUVEC and MSC
Reported viability, T/C is given for each of the following molecules.
MEASURED PROPERTY: viability, T/C (%)

# MOLECULE, MEASURED PROPERTY, U, ENDPOINT RESULT
rows = [
    ("Cn1ncnc1[C@H]1c2n[nH]c(=O)c3cc(F)cc(c23)N[C@@H]1c1ccc(F)cc1 + CC(Nc1ncnc2nc[nH]c12)c1cc2cccc(Cl)c2c(=O)n1-c1ccccc1", "viability, T/C", "%", 95.5),
    ("Cn1ncnc1[C@H]1c2n[nH]c(=O)c3cc(F)cc(c23)N[C@@H]1c1ccc(F)cc1 + COc1c(OCCCN2CCOCC2)ccc2c3n(c(=NC(=O)c4cnc(N)nc4)nc12)CCN3", "viability, T/C", "%", 12.5),
    ("CC(C)n1nc(-c2ccc3oc(N)nc3c2)c2c(N)ncnc21 + Cc1nc(NC(=O)N2CCCC2C(N)=O)sc1-c1ccnc(C(C)(C)C(F)(F)F)c1", "viability, T/C", "%", 64.4),
    ("Cn1ncnc1[C@H]1c2n[nH]c(=O)c3cc(F)cc(c23)N[C@@H]1c1ccc(F)cc1 + Cc1nc(NC(=O)N2CCCC2C(N)=O)sc1-c1ccnc(C(C)(C)C(F)(F)F)c1", "viability, T/C", "%", 72.5),
    ("CC(C)n1nc(-c2ccc3oc(N)nc3c2)c2c(N)ncnc21 + CC(Nc1ccc2c(c1)OCCn1cc(N3C(=O)OCC3C(F)F)nc1-2)C(N)=O", "viability, T/C", "%", 42.1),
    ("CC(C)n1nc(-c2ccc3oc(N)nc3c2)c2c(N)ncnc21 + COc1c(OCCCN2CCOCC2)ccc2c3n(c(=NC(=O)c4cnc(N)nc4)nc12)CCN3", "viability, T/C", "%", 12.2),
]

====

# System: 313798-341-R-J2-PDC spheroids, viability
# ASSAY NAME: Anticancer human tumor 313798-341-R-J2-PDC cell line growth inhibition [PI3K];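 further: spheroids exposed to compounds for seven days; 100% = DMSO vehicle control viability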
# MEASUREMENT SETUP: second compound 0.1 µM; first compound 0.1 µM; hits give low values; spheroids with HUVEC and MSC

# COMPOUND, viability, T/C [%]
data = [
    ("C=CC(=O)N1CCN(c2nc(=O)n(-c3c(C)ccnc3C(C)C)c3nc(-c4c(O)cccc4F)c(F)cc23)C(C)C1 (stereo not given) + CC(Nc1ncnc2nc[nH]c12)c1cc2cccc(Cl)c2c(=O)n1-c1ccccc1", 96.2),
    ("CC(C)NCC(C(=O)N1CCN(c2ncnc3c2C(C)CC3O)CC1)c1ccc(Cl)cc1 (stereo not given) + Cc1nc(NC(=O)N2CCCC2C(N)=O)sc1-c1ccnc(C(C)(C)C(F)(F)F)c1", 102),
    ("C=CC(=O)N1CCN(c2nc(=O)n(-c3c(C)ccnc3C(C)C)c3nc(-c4c(O)cccc4F)c(F)cc23)C(C)C1 (stereo not given) + COc1c(OCCCN2CCOCC2)ccc2c3n(c(=NC(=O)c4cnc(N)nc4)nc12)CCN3", 48.9),
    ("CC(Cn1ccc(-c2ccc(C#N)c(Cl)c2)n1)NC(=O)c1cc(C(C)O)[nH]n1 (stereo not given) + CC(Nc1ncnc2nc[nH]c12)c1cc2cccc(Cl)c2c(=O)n1-c1ccccc1", 105),
    ("C=CC(=O)N1CCN(c2nc(=O)n(-c3c(C)ccnc3C(C)C)c3nc(-c4c(O)cccc4F)c(F)cc23)C(C)C1 (stereo not given) + Cc1nc(NC(=O)N2CCCC2C(N)=O)sc1-c1ccnc(C(C)(C)C(F)(F)F)c1", 94),
]

====

# System: 313798-341-R-J2-PDC spheroids, viability
# ASSAY NAME: Anticancer human tumor 313798-341-R-J2-PDC cell line growth inhibition [PI3K];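 further: spheroids exposed to compounds for seven days; 100% = DMSO vehicle control viability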
# MEASUREMENT SETUP: second compound 0.316 µM; first compound 0.316 µM; hits give low values; spheroids with HUVEC and MSC
Each entry falls into one class according to its viability, T/C; the ranges are lower level (below 60%), middle level (60% to below 80%), upper level (80% or more)

# COMPOUND, CLASS
rows = [
    ("CC(C)NCC(C(=O)N1CCN(c2ncnc3c2C(C)CC3O)CC1)c1ccc(Cl)cc1 (centres undefined) + Cc1nc(NC(=O)N2CCCC2C(N)=O)sc1-c1ccnc(C(C)(C)C(F)(F)F)c1", "upper level"),
    ("Cn1nccc1Nc1nccc(-c2ccn(C(CO)c3ccc(Cl)c(F)c3)c(=O)c2)n1 (centres undefined) + CC(Nc1ccc2c(c1)OCCn1cc(N3C(=O)OCC3C(F)F)nc1-2)C(N)=O", "middle level"),
    ("Cn1ncc(Cl)c1-c1cc(C(=O)NC(CN)Cc2cccc(F)c2)sc1Cl (centres undefined) + Cc1nc(NC(=O)N2CCCC2C(N)=O)sc1-c1ccnc(C(C)(C)C(F)(F)F)c1", "middle level"),
    ("CC1(C)CCC(Nc2ncc(C(F)(F)F)c(-c3c[nH]c4c(P(C)(C)=O)c(C#N)ccc34)n2)CN1 (centres undefined) + CC(Nc1ncnc2nc[nH]c12)c1cc2cccc(Cl)c2c(=O)n1-c1ccccc1", "lower level"),
    ("Cn1ncc(Cl)c1-c1cc(C(=O)NC(CN)Cc2cccc(F)c2)sc1Cl (centres undefined) + CC(Nc1ccc2c(c1)OCCn1cc(N3C(=O)OCC3C(F)F)nc1-2)C(N)=O", "lower level"),
    ("CNC(=O)c1ccc(N2C(=S)N(c3ccc(C#N)c(C(F)(F)F)c3)C(=O)C2(C)C)cc1F + COc1c(OCCCN2CCOCC2)ccc2c3n(c(=NC(=O)c4cnc(N)nc4)nc12)CCN3", "lower level"),
    ("C#Cc1c(F)ccc2cc(O)cc(-c3ncc4c(N5CC6CCC(C5)N6)nc(OCC56CCCN5CC(F)C6)nc4c3F)c12 (centres undefined) + CC(Nc1ncnc2nc[nH]c12)c1cc2cccc(Cl)c2c(=O)n1-c1ccccc1", "upper level"),
]
